- TARGET OR TEST SYSTEM: UniProt:P30613
- METHOD SUMMARY: PKR (wild type) enzyme AC50 assay, LDH/NADH-coupled, absorbance at 340 nm
- Assay type: biochemical
- CONDITION NOTES: Table 2; enzyme assay; read-out: PKR WT AC50
- Protocol: Example 11. PKR Mutant Assay PKR or PKR mutant enzyme solution was diluted into a reaction mix, which contains 1× buffer (100 mM KCl, 50 mM Tris pH 7.5, 5 mM MgCl2) as well as PEP (conc depends on enzyme), 180 μM NADH, 0.5 units LDH, 1 mM DTT, 0.03% BSA; final assay concentrations after 1.11 fold dilution are indicated. […] 20 uL ADP was added to start reaction at room temperature and reaction progress was measured as changes in absorbance at 340 nm wavelength at room temperature. […]

MOLECULE | TARGET OR TEST SYSTEM | AC50
Cn1c2nc(C(O)c3cc[nH]n3)sc2c2cnn(Cc3cccc4[nH]ncc34)c(=O)c21 (stereo not shown) [Compound 148] | UniProt:P30613 | < 300 nM
COc1cccc(Cn2ncc3c4sc(C(=O)c5cccc(O)c5)nc4n(C)c3c2=O)c1 [Compound 55] | UniProt:P30613 | 301 to 800 nM
Cn1c2nc(Cc3ccc(Cl)nc3)sc2c2cnn(Cc3cccc4[nH]ncc34)c(=O)c21 [Compound 150] | UniProt:P30613 | > 800 nM
Cn1c2nc(SCc3ccccc3)sc2c2cnn(Cc3cccc4[nH]ncc34)c(=O)c21 [Compound 121] | UniProt:P30613 | 301 to 800 nM
Cn1c2nc([S+](C)[O-])sc2c2cnn(Cc3cccc(C(C)(C)O)c3)c(=O)c21 (stereo not shown) [Compound 87] | UniProt:P30613 | < 300 nM
Cn1c2nc(Cc3cc[nH]n3)sc2c2cnn(Cc3cccc4[nH]ncc34)c(=O)c21 [Compound 81] | UniProt:P30613 | < 300 nM
Cc1nc2c(s1)c1cnn(Cc3ccccc3F)c(=O)c1n2C [Compound 3] | UniProt:P30613 | < 300 nM

====

This section presents compounds with their documented AC50 values.
- TARGET OR TEST SYSTEM: wild type PKR (Homo sapiens)
- Sequence (P30613 whole entry): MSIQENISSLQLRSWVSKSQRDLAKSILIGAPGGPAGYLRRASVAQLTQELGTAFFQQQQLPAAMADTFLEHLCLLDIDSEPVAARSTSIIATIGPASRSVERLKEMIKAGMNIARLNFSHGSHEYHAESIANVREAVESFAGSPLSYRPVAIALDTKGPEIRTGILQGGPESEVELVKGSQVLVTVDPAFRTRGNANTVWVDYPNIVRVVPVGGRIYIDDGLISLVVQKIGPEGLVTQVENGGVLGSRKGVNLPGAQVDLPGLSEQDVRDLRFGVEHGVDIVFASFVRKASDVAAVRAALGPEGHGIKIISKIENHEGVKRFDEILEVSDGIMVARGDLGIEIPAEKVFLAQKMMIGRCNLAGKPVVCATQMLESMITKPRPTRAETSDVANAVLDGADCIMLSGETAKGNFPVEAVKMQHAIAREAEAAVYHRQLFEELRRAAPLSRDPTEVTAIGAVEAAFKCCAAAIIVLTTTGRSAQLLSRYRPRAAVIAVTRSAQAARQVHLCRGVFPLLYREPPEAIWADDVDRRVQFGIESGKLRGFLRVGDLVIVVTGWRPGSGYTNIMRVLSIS
- METHOD SUMMARY: Cell based ATP assay in purified red blood cells (Cell-Titer-Glo)
- Parameters: endogenous in cells; host or cells: purified red blood cells from healthy volunteers
- CONDITION NOTES: Table 2; RBCs, overnight at 37° C., ATP levels
ASSAY ENDPOINT: AC50

COMPOUND | ENDPOINT RESULT
Cn1c2nc(Cc3ccncc3)sc2c2cnn(Cc3cccc4[nH]ncc34)c(=O)c21 [Compound 161] | > 1000 nM
Cc1nc2c(s1)c1cnn(Cc3ccc4[nH]ncc4c3)c(=O)c1n2C [Compound 29] | > 1000 nM
Cn1c2nc(CO)sc2c2cnn(Cc3cccc4[nH]ncc34)c(=O)c21 [Compound 105] | ≤ 1000 nM
COc1cccc(Cn2ncc3c4sc(C)nc4n(C)c3c2=O)c1 [Compound 1] | ≤ 1000 nM
Cn1c2nc(C(c3cccc4[nH]ncc34)S(=O)(=O)c3ccccc3)sc2c2cnn(Cc3cccc4[nH]ncc34)c(=O)c21 (stereo not drawn) [Compound 133] | > 1000 nM
COc1cccc(Cn2ncc3c4sc(C(C)O)nc4n(C)c3c2=O)c1 (stereo not drawn) [Compound 52] | ≤ 1000 nM
Cc1nc2c(s1)c1cnn(Cc3ccc4nn[nH]c4c3)c(=O)c1n2C [Compound 20] | > 1000 nM
CC(O)c1cccc(Cn2ncc3c4sc([S+](C)[O-])nc4n(C)c3c2=O)c1 (stereo not drawn) [Compound 88] | ≤ 1000 nM
Cn1c2nc(C(C)(O)c3ccccc3)sc2c2cnn(Cc3cccc4[nH]ncc34)c(=O)c21 (stereo not drawn) [Compound 126] | ≤ 1000 nM
COc1cccc(Cn2ncc3c4sc([S+](C)[O-])nc4n(C)c3c2=O)c1 (stereo not drawn) [Compound 24] | > 1000 nM
Cn1c2nc(C(O)c3ccccc3)sc2c2cnn(Cc3cccc4[nH]ncc34)c(=O)c21 (stereo not drawn) [Compound 117] | > 1000 nM
COc1cccc(Cn2ncc3c4sc(C=O)nc4n(C)c3c2=O)c1 [Compound 38] | > 1000 nM
Cn1c2nc([S+](C)[O-])sc2c2cnn(Cc3ccc(C#N)cc3)c(=O)c21 (stereo not drawn) [Compound 75] | ≤ 1000 nM
Cn1c2nc(C(N)=O)sc2c2cnn(Cc3csc(N)n3)c(=O)c21 [Compound 146] | ≤ 1000 nM
Cn1c2nc(C(O)(C(N)=O)c3ccccc3)sc2c2cnn(Cc3cccc4[nH]ncc34)c(=O)c21 (stereo not drawn) [Compound 152] | ≤ 1000 nM
COc1cccc(Cn2ncc3c4sc(OC)nc4n(C)c3c2=O)c1 [Compound 22] | > 1000 nM
Cc1nc2c(s1)c1cnn(Cc3cccc(CN)c3)c(=O)c1n2C [Compound 58] | > 1000 nM
Cn1c2nc(CC(N)=O)sc2c2cnn(Cc3cccc4[nH]ncc34)c(=O)c21 [Compound 137] | > 1000 nM
Cn1c2nc(C(N)c3ccccc3)sc2c2cnn(Cc3cccc4[nH]ncc34)c(=O)c21 (stereo not drawn) [Compound 136] | ≤ 1000 nM
Cc1nc2c(s1)c1cnn(Cc3cccc(F)n3)c(=O)c1n2C [Compound 28] | > 1000 nM
Cc1nc2c(s1)c1cnn(Cc3ccccc3O)c(=O)c1n2C [Compound 18] | ≤ 1000 nM
COC(=O)C(C(=O)OC)c1nc2c(s1)c1cnn(Cc3cccc4[nH]ncc34)c(=O)c1n2C [Compound 113] | > 1000 nM
Cn1c2nc(Cc3cccnc3)sc2c2cnn(Cc3cccc4[nH]ncc34)c(=O)c21 [Compound 164] | ≤ 1000 nM
Cn1c2nc(Cc3ncsc3CO)sc2c2cnn(Cc3cccc4[nH]ncc34)c(=O)c21 [Compound 167] | ≤ 1000 nM
